Target: T1, human PD1 expressed on a cell surface (human, UniProt Q15116 25-288)
T1 construct: whole, on cells; also called hPD1
T1 sequence (Q15116 25-288): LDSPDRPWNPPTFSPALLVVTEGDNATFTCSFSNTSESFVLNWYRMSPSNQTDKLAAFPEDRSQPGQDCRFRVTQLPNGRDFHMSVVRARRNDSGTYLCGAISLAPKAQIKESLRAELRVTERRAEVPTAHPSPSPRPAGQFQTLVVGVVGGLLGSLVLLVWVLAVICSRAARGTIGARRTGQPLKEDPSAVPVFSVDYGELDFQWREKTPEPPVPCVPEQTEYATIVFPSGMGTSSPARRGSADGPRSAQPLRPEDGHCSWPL
Test: flow cytometry on OKT3-activated human T cells, CD4- cells

Binder	EC50 [nM]
anti-hPD1 antibody #8 (antibody, human IgG4, V domains shown, also called Anti-hPD1 #8) VH: QVQLVQSGAEVKKPGASVKVSCKASGYTFTNYWIHWVRQAPGQGLEWMGEIDPYDSYTNYNQKFKGRVTMTIDTSTSTVYMELSSLRSEDTAVYYCARPGNTYGGMDFWGQGTLVTVSS VL: DIVMTQSPDSLAVSLGERATINCKSSQSLFISGNQKNYLAWYQQKPGQPPKLLIYGASTRDSGVPDRFSGSGSGTDFTLTISSLQAEDVAVYYCQNNHYYPYTFGGGTKVEIK	0.904
anti-hPD1 antibody #12 (antibody, human IgG4, V domains shown, also called Anti-hPD1 #12) VH: QVQLVQSGAEVKKPGASVKVSCKASGYTFTNYWMHWVRQAPGQGLEWMGEIDPFDSYTNYNQKFKGRVTMTIDTSTNTVYMELSSLRSEDTAVYYCARPGFTYGGMDFWGQGTLVTVSS VL: DIVMTQSPDSLAVSLGERATISCRSSQSLLISGNQKNYLAWYQQKPGQPPKLLIYGASTRDSGVPDRFSGSGSGTDFTLTISSLQAEDVAVYYCQNNHYYPYTFGGGTKVEIK	1.16
anti-hPD1 antibody #6 (antibody, human IgG4, V domains shown, also called Anti-hPD1 #6; Anti-PD1 #6) VH: QVQLVQSGAEVKKPGASVKVSCKASGYTFTNYWIHWVRQAPGQGLEWMGEIDPYDSYTNYNQKFKGRVTMTGDTSTSTVYMELSSLTSEDTAVYYCARPGYTYGGMDFWGQGTLVTVSS VL: DIQMTQSPSSLSASVGDRVTITCRSSQSLFNSGNQKNYLAWYQQKPGKPPKLLIYGASTRESGVPARFSGSGSGTDFTLTISSLQPEDVATYYCQNDHYYPYTFGGGTKVEIK	0.617
